# System: HDFB
# ASSAY DETAILS: growth inhibition relative to DMSO control (fraction); higher = stronger growth inhibition
# CONDITION LABEL: GSK-LSD1 concentration 10 nM; partner concentration 1 nM; treatment time: 6 days
Classification field: enter 1 for growth inhibition values not below 0.07, -1 for values below it.

query: Check the entry c1ccc([C@@H]2C[C@H]2NC2CCNCC2)cc1 [GSK-LSD1] + Cc1sc2c(c1C)C(c1ccc(Cl)cc1)=N[C@@H](CC(=O)OC(C)(C)C)c1nnc(C)n1-2 [(+)-JQ1] : does growth inhibition equal or exceed 0.07?
result: -1

query: Check the entry c1ccc([C@@H]2C[C@H]2NC2CCNCC2)cc1 [GSK-LSD1] + CCOC(=O)NCCCC(=O)NCCc1ccccc1 [Santacruzamate A] : does growth inhibition equal or exceed 0.07?
result: 1

query: Check the entry c1ccc([C@@H]2C[C@H]2NC2CCNCC2)cc1 [GSK-LSD1] + CN1CCN(c2ccc(-c3cccc(CN4CCOCC4)c3)cc2NC(=O)c2c[nH]c(=O)cc2C(F)(F)F)CC1 [OICR9429] : does growth inhibition equal or exceed 0.07?
result: 1

query: Check the entry c1ccc([C@@H]2C[C@H]2NC2CCNCC2)cc1 [GSK-LSD1] + O=C(NC[C@H](O)CN1CCc2ccccc2C1)c1ccnc(NC2CCC2)c1 [GSK591] : does growth inhibition equal or exceed 0.07?
result: -1

query: Check the entry c1ccc([C@@H]2C[C@H]2NC2CCNCC2)cc1 [GSK-LSD1] + Nc1ccccc1NC(=O)c1ccc(CNC(=O)OCc2cccnc2)cc1 [Entinostat] : does growth inhibition equal or exceed 0.07?
result: 1

----------
# Test system: HDFB
# ASSAY DETAILS: cell viability relative to DMSO control; higher = less growth inhibition
# CONDITION LABEL: log10 concentration (M): -7; treatment time: 6 days
ENDPOINT: cell viability (%)
Expressed in %, but write only the number.

INSERT INTO results (compound, target_or_test_system, units, assay_value) VALUES
  ('Nc1ccccc1NC(=O)c1ccc(CNC(=O)OCc2cccnc2)cc1 [Entinostat]', 'HDFB', '%', 94.1),
  ('N[C@H]1CC[C@H](N[C@@H]2C[C@H]2c2ccccc2)CC1 [ORY-1001]', 'HDFB', '%', 94.1);

query: # return recorded cell viability for input c1ccc([C@@H]2C[C@H]2NC2CCNCC2)cc1 [GSK-LSD1]
result: 98.6

query: # return recorded cell viability for input Cc1sc2c(c1C)C(c1ccc(Cl)cc1)=N[C@@H](CC(=O)OC(C)(C)C)c1nnc(C)n1-2 [(+)-JQ1]
result: 78.7

query: # return recorded cell viability for input Cc1cc2c(cc1N1C(=O)c3cccc4c(CCCO)ccc(c34)C1=O)n(C)c(=O)n2C [BAY299]
result: 92.1

----------
# Test system: HDFB
# ASSAY DETAILS: growth inhibition relative to DMSO control (fraction); higher = stronger growth inhibition
# CONDITION LABEL: GSK-LSD1 concentration 1 nM; partner concentration 10000 nM; treatment time: 6 days
Classification field: enter true for growth inhibition values not below 0.4, false for values below it.

INSERT INTO assay_data (molecule, target_or_test_system, group) VALUES
  ('c1ccc([C@@H]2C[C@H]2NC2CCNCC2)cc1 [GSK-LSD1] + Nc1ccccc1NC(=O)c1ccc(CNC(=O)OCc2cccnc2)cc1 [Entinostat]', 'HDFB', 'true'),
  ('c1ccc([C@@H]2C[C@H]2NC2CCNCC2)cc1 [GSK-LSD1] + Cc1cc2c(cc1N1C(=O)c3cccc4c(CCCO)ccc(c34)C1=O)n(C)c(=O)n2C [BAY299]', 'HDFB', 'true'),
  ('c1ccc([C@@H]2C[C@H]2NC2CCNCC2)cc1 [GSK-LSD1] + CN1CCN(c2ccc(-c3cccc(CN4CCOCC4)c3)cc2NC(=O)c2c[nH]c(=O)cc2C(F)(F)F)CC1 [OICR9429]', 'HDFB', 'true'),
  ('c1ccc([C@@H]2C[C@H]2NC2CCNCC2)cc1 [GSK-LSD1] + CCOC(=O)NCCCC(=O)NCCc1ccccc1 [Santacruzamate A]', 'HDFB', 'false'),
  ('c1ccc([C@@H]2C[C@H]2NC2CCNCC2)cc1 [GSK-LSD1] + O=C(NC[C@H](O)CN1CCc2ccccc2C1)c1ccnc(NC2CCC2)c1 [GSK591]', 'HDFB', 'false');

Turning now to a further molecule:
query: Check the entry c1ccc([C@@H]2C[C@H]2NC2CCNCC2)cc1 [GSK-LSD1] + Cc1sc2c(c1C)C(c1ccc(Cl)cc1)=N[C@@H](CC(=O)OC(C)(C)C)c1nnc(C)n1-2 [(+)-JQ1] : does growth inhibition equal or exceed 0.4?
result: true

----------
Below, each of the compounds is paired with its reported cell viability value.
# Tested on: MKL-1
# ASSAY DETAILS: cell viability relative to DMSO control; higher = less growth inhibition
# CONDITION LABEL: log10 concentration (M): -6; treatment time: 6 days
Your reply should be a number followed by the unit it is expressed in.

Here are 7 compounds together with their reported answers.
INSERT INTO measurements (compound, endpoint, assay_value) VALUES
  ('N[C@H]1CC[C@H](N[C@@H]2C[C@H]2c2ccccc2)CC1', 'cell viability', '44.9%'),
  ('CN1CCN(c2ccc(-c3cccc(CN4CCOCC4)c3)cc2NC(=O)c2c[nH]c(=O)cc2C(F)(F)F)CC1', 'cell viability', '79.2%'),
  ('Cc1cc2c(cc1N1C(=O)c3cccc4c(CCCO)ccc(c34)C1=O)n(C)c(=O)n2C', 'cell viability', '20.6%'),
  ('CCOC(=O)NCCCC(=O)NCCc1ccccc1 [Santacruzamate A]', 'cell viability', '105%'),
  ('O=C(NC[C@H](O)CN1CCc2ccccc2C1)c1ccnc(NC2CCC2)c1', 'cell viability', '72.4%'),
  ('Cc1sc2c(c1C)C(c1ccc(Cl)cc1)=N[C@@H](CC(=O)OC(C)(C)C)c1nnc(C)n1-2 [(+)-JQ1]', 'cell viability', '0.0944%'),
  ('Nc1ccccc1NC(=O)c1ccc(CNC(=O)OCc2cccnc2)cc1', 'cell viability', '0.0511%');

We now examine a further compound.
query: # return recorded cell viability for input c1ccc([C@@H]2C[C@H]2NC2CCNCC2)cc1
result: 62%

----------
# System: HDFB
# ASSAY DETAILS: growth inhibition relative to DMSO control (fraction); higher = stronger growth inhibition
# CONDITION LABEL: GSK-LSD1 concentration 0 nM; partner concentration 1000 nM; treatment time: 6 days
Classification field: enter 1 for growth inhibition values not below 0.3, 0 for values below it.

INSERT INTO results (compound, group) VALUES
  ('c1ccc([C@@H]2C[C@H]2NC2CCNCC2)cc1 [GSK-LSD1] + O=C(NC[C@H](O)CN1CCc2ccccc2C1)c1ccnc(NC2CCC2)c1 [GSK591]', 0);

Turning now to a further compound:
query: Check the entry c1ccc([C@@H]2C[C@H]2NC2CCNCC2)cc1 [GSK-LSD1] + Nc1ccccc1NC(=O)c1ccc(CNC(=O)OCc2cccnc2)cc1 [Entinostat] : does growth inhibition equal or exceed 0.3?
result: 1

----------
# Tested on: MKL-1
# ASSAY DETAILS: cell viability relative to DMSO control; higher = less growth inhibition
# CONDITION LABEL: log10 concentration (M): -4; treatment time: 6 days
ENDPOINT: cell viability
Your reply should be a number followed by the unit it is expressed in.

Here are 5 compounds together with their reported answers.
INSERT INTO assay_data (compound, target_or_test_system, endpoint, assay_value) VALUES
  ('Cc1cc2c(cc1N1C(=O)c3cccc4c(CCCO)ccc(c34)C1=O)n(C)c(=O)n2C', 'MKL-1', 'cell viability', '0.0297%'),
  ('CN1CCN(c2ccc(-c3cccc(CN4CCOCC4)c3)cc2NC(=O)c2c[nH]c(=O)cc2C(F)(F)F)CC1', 'MKL-1', 'cell viability', '0.438%'),
  ('Cc1sc2c(c1C)C(c1ccc(Cl)cc1)=N[C@@H](CC(=O)OC(C)(C)C)c1nnc(C)n1-2 [(+)-JQ1]', 'MKL-1', 'cell viability', '0.00849%'),
  ('CCOC(=O)NCCCC(=O)NCCc1ccccc1 [Santacruzamate A]', 'MKL-1', 'cell viability', '34.9%'),
  ('Nc1ccccc1NC(=O)c1ccc(CNC(=O)OCc2cccnc2)cc1', 'MKL-1', 'cell viability', '0.0104%');

We now examine a further compound.
query: # return recorded cell viability for input O=C(NC[C@H](O)CN1CCc2ccccc2C1)c1ccnc(NC2CCC2)c1
result: 37.2%

----------
Below, each of the compounds is paired with its reported growth inhibition value.
# Test system: MKL-1
# ASSAY DETAILS: growth inhibition relative to DMSO control (fraction); higher = stronger growth inhibition
# CONDITION LABEL: GSK-LSD1 concentration 0 nM; partner concentration 10000 nM; treatment time: 6 days
// response body must contain only the number

Here are 2 compounds together with their reported answers.
INSERT INTO measurements (compound, assay_value) VALUES
  ('c1ccc([C@@H]2C[C@H]2NC2CCNCC2)cc1 [GSK-LSD1] + Nc1ccccc1NC(=O)c1ccc(CNC(=O)OCc2cccnc2)cc1 [Entinostat]', 1),
  ('c1ccc([C@@H]2C[C@H]2NC2CCNCC2)cc1 [GSK-LSD1] + O=C(NC[C@H](O)CN1CCc2ccccc2C1)c1ccnc(NC2CCC2)c1 [GSK591]', 0.324);

We now examine a further compound.
query: # return recorded growth inhibition for input c1ccc([C@@H]2C[C@H]2NC2CCNCC2)cc1 [GSK-LSD1] + CCOC(=O)NCCCC(=O)NCCc1ccccc1 [Santacruzamate A]
result: -0.0477
